Data credit: PubChem BioAssay AID1259407

- Test system: CCRIS mutagenicity, Ames/micronucleus/aberration tests
- test_details: CCRIS mutagenicity studies
- stated_conditions: Test System: AMES SALMONELLA TYPHIMURIUM; Strain/Indicator: TA1537; Metabolic Activation: RAT LIVER S-9, PHENOBARBITAL AND BETA-NAPHTHOFLAVONE; Method: PREINCUBATION
Calls of active or inactive are those of the source. The rule behind the calls is not given here.
Can you answer with just one of these options? yes (1) (active), no (0) (inactive)

• N#CN=C(N)N = no (0)
• C=CCOC(=O)c1ccccc1C(=O)OCC=C = no (0)
• O=c1n(CC2CO2)c(=O)n(CC2CO2)c(=O)n1CC1CO1 (stereo unspecified) = no (0)
• CC(C)Nc1ccc(Nc2ccccc2)cc1 = no (0)
• Nc1cc(Cl)ccc1[N+](=O)[O-] = no (0)

Per the assay record, what outcome was assigned to `Nc1ccccc1N` ? yes (1)

Also need `O` , thanks. no (0)

Also need `CCCCCCCCCCCCCCCC(=O)O` , thanks. no (0)

Also need `Cc1cnc[nH]1` , thanks. no (0)

Also need `CCNCCN` , thanks. no (0)
